FYI, the data here is from paper PMC4971285.

Test system: Cardiomyocytes
Assay: Cytotoxicity on primary cardiomyocytes
Type: cell-based, mice
Conditions: read-out: CC50 Vero/CM; cardiomyocytes, medium without heme, 72 h, resazurin
property-name: CC50

{"compound": "O=C(Cn1ccnc1[N+](=O)[O-])NCc1ccccc1 [Bz, benznidazole, reference compound]", "observed-value": "> 100 µM"}

====

Listing: CC50 at 72 h of selected compounds
Assay: Cytotoxicity on Vero cells
Assay type: cell-based
Conditions: African green monkey
property-name: CC50 at 72 h

{"compound": "O=C(Cn1ccnc1[N+](=O)[O-])NCc1ccccc1 [Bz, benznidazole, reference compound]", "property-name": "CC50 at 72 h", "observed-value": "> 100 µM"}
{"compound": "N#Cc1cnc2ccc(Cl)cc2c1Nc1ccccc1 [Compound 1a]", "property-name": "CC50 at 72 h", "observed-value": "> 100 µM"}
{"compound": "N#Cc1cnc2ccc(Cl)cc2c1Nc1cccc(F)c1 [Compound 1b]", "property-name": "CC50 at 72 h", "observed-value": "69 µM"}
{"compound": "N#Cc1cnc2ccc(Cl)cc2c1Nc1ccc(F)cc1 [Compound 1c]", "property-name": "CC50 at 72 h", "observed-value": "> 100 µM"}
{"compound": "N#Cc1cnc2ccc(Cl)cc2c1Nc1cccc(Cl)c1 [Compound 1e]", "property-name": "CC50 at 72 h", "observed-value": "89 µM"}
{"compound": "N#Cc1cnc2ccc(Cl)cc2c1Nc1cccc(Br)c1 [Compound 1f]", "property-name": "CC50 at 72 h", "observed-value": "71 µM"}
{"compound": "N#Cc1cnc2ccc(Cl)cc2c1Nc1ccccc1Cl [Compound 1d]", "property-name": "CC50 at 72 h", "observed-value": "64 µM"}
